tested on: SR leukemia; assay: NCI-60 one-dose screen, 48 h (100 = growth as untreated, 0 = no growth, -100 = all killed); settings: 10 µM unless noted
About 83,000 compounds went through this panel and 20% of them were active in at least one assay; those are over-represented in the sample as a whole. Active and inactive are the calls of the source. Rule for the calls: active = growth percent below 10; inactive = the rest.
The entries below come with measured growth values attached.
QUANTITY MEASURED: growth

> print(dat)
                                   compound  quantity.measured            result
1            Nc1ccc2c(O)cc(S(=O)(=O)O)cc2c1             growth  86.3% (inactive)
2                          CCc1cc(C)cc(O)c1             growth   102% (inactive)
3                                        Cl             growth   104% (inactive)
4          O=C1OC(c2ccccc2)=N/C1=C\c1ccccc1             growth   108% (inactive)
5  COc1ccc(C(=O)CC(c2ccccc2)C(C#N)c2ccccc2)cc1 (stereo not given)             growth  73.8% (inactive)
